biological target: Fes (UniProt P07332); assay: phosphorylation enrichment, bacterial display (enrichment ratio); higher = better substrate or ligand; peptides without Tyr show the background;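 further: 11-residue human phosphosite peptides and single-mutation variants displayed on the E. coli surface, counted by deep sequencing, each peptide's frequency after selection divided by its frequency in the unselected input library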;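 further: frequency after pTyr selection over input frequency; kinase dosed for 20-30% of maximal phosphorylation in three min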
Sequence (P07332 whole entry, looked up): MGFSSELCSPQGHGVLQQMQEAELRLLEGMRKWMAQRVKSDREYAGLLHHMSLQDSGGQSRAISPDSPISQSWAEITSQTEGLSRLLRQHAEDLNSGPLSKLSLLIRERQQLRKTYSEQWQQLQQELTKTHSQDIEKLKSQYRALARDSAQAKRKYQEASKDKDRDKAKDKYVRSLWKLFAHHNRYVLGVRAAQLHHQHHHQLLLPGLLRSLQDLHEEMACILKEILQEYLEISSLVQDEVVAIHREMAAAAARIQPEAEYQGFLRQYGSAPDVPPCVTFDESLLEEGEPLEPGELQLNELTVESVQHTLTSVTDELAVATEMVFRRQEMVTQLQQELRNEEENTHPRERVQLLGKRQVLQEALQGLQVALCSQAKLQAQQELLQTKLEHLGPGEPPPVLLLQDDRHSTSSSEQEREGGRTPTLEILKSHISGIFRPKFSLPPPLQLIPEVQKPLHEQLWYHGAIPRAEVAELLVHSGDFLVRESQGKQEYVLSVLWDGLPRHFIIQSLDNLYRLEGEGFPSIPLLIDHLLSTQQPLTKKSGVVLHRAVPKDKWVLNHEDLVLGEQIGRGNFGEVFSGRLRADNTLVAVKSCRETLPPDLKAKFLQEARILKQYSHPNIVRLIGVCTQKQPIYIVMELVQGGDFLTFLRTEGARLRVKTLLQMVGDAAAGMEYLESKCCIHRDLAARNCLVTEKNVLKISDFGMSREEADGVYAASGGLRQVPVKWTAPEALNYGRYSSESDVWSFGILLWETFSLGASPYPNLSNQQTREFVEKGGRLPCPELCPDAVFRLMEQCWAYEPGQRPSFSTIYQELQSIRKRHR
MEASURED ENDPOINT: phosphorylation enrichment

SEQ TEXT	phosphorylation enrichment
ETAENYLGHTA [HSPA9_Y181]	0.865
KINKMYSDHAM	0.463
YDAHNYHPLPV [OAT_Y55_G51D]	0.685
EQKKFYNATKK [SCN5A_Y1495_M1498T_YF]	0.674
SVVMPYEPPEV [TP53_Y220_V218M]	1.12
PLRAFYLIARV [HLCS_Y635_D634Y_YF]	4.68

As a next step, examine the sequence that follows.
Notebook: QQLDEYQKLLD [LMNA_Y359_E361K] , phosphorylation enrichment read as 1.85

###

target: Fyn (UniProt P06241); assay: phosphorylation enrichment, bacterial display (enrichment ratio); higher = better substrate or ligand; peptides without Tyr show the background
Sequence (P06241 whole entry, looked up): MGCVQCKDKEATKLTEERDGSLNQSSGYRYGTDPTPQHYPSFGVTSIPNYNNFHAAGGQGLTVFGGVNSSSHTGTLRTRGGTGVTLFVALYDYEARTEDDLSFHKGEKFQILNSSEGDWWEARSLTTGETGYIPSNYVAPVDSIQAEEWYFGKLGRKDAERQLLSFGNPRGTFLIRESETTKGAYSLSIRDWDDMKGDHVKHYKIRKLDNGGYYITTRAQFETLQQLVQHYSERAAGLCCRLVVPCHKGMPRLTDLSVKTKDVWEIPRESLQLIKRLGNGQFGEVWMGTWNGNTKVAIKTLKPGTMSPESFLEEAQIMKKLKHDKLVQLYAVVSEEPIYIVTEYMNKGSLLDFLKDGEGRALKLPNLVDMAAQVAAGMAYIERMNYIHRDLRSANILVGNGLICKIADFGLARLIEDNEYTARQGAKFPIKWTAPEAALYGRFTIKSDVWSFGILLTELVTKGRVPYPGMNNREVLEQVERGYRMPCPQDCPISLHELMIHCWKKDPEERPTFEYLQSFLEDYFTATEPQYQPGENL
Attribute: phosphorylation enrichment
Provide a numeric answer; units are not to be included.

Solved cases (8 shown):
SEQ TEXT	ASSAYED TARGET	phosphorylation enrichment
GIVTGYLVLKE [DNMT3B_Y588_A585V]	Fyn (UniProt P06241)	0.492
ALKKPYGVLYK [RPF2_Y59]	Fyn (UniProt P06241)	0.503
YRVAGYKTQGG [TIA1_Y383_E384K]	Fyn (UniProt P06241)	0.494
QYKGKYLAKHN [CASK_Y712_D710G]	Fyn (UniProt P06241)	0.658
TEIGQYGNGLK [MORC2_Y100_Q96E]	Fyn (UniProt P06241)	0.393
IDDLEYLHSQG [STK11_Y166_G163D]	Fyn (UniProt P06241)	0.581
RAKLFYQEVPA [METTL11B_Y76]	Fyn (UniProt P06241)	0.716
APGNAYGDAGY [SYP_Y250_D248N]	Fyn (UniProt P06241)	0.418

Notebook: RRNSPYSQTMK [TET2_Y819] , phosphorylation enrichment read as 0.731

Notebook: SSVKLYRVFCD [FGB_Y266_P265L_YF] , phosphorylation enrichment read as 0.468

Notebook: EEESCYILHSS [PATJ_Y783] , phosphorylation enrichment read as 0.659

###

Attribute: phosphorylation enrichment
tested on: Fer (mouse); assay: phosphorylation enrichment, bacterial display (enrichment ratio); higher = better substrate or ligand; peptides without Tyr show the background
Provide a numeric answer; units are not to be included.

Solved cases (3 shown):
SEQ TEXT	ASSAYED TARGET	phosphorylation enrichment
ATHSGYRLNDF [CLDN14_Y233_YF]	Fer (mouse)	0.361
GAVGNYSRGLA [MGMT_Y158_G160R]	Fer (mouse)	0.358
IRTIDYRFTVC [IDS_Y497_W502C_YF]	Fer (mouse)	0.518

Notebook: VGSEDYGWDLT [SPTAN1_Y1792_R1794W] , phosphorylation enrichment read as 0.463

Notebook: FLAVGYHMPHI [IDS_Y225_K227M] , phosphorylation enrichment read as 0.402

Notebook: PASWTYVRWFD [PTDSS1_Y274] , phosphorylation enrichment read as 0.729

Notebook: YIATQYSLCPR [LBR_Y166_R169C] , phosphorylation enrichment read as 0.606

Notebook: RNAAEYPLSSG [ABL1_Y139_L140P] , phosphorylation enrichment read as 0.402
